# Test system: Rat SNL tactile allodynia
# measurementProtocol: L5/L6 spinal nerve ligation (SNL) Chung pain model, tactile allodynia (von Frey)
# Assay type: in vivo
# settings: 1 hour
Overview of reported Rat SNL Tactile Allodynia (% Antiallodynia) across a group of molecules:
Form entry: value (%) — number only.

These solved cases illustrate the format of a correct answer.
CC1(C)C(=O)NCCN1C(=O)CNc1cc(C(F)(F)F)cc(C(F)(F)F)c1
9
O=C1CN(C(=O)CNc2cc(F)cc(C(F)(F)F)c2)CCN1
9

# context switch: different molecule, same Rat SNL Tactile Allodynia (% Antiallodynia)
Dear colleague, I am looking for the recorded Rat SNL Tactile Allodynia (% Antiallodynia) of the following molecule: O=C1CN(CC(=O)Nc2cc(C(F)(F)F)cc(C(F)(F)F)c2)CCN1
36

---

# measurementProtocol: Rat Early Pharmacokinetic (EPK) study
# Format: in vivo
# settings: male, Sprague-Dawley, blood, PO, 30 mg/kg, formulation 10% DMSO/90% CMC
Overview of reported Tmax across a group of compounds:
Form entry: value (min) — number only.

CC1(C)CN(CC(=O)Nc2cc(C(F)(F)F)cc(C(F)(F)F)c2)C(=O)CN1
40.2

# context switch: different compound, same Tmax
Dear colleague, I am looking for the recorded Tmax of the following compound: O=C1CN(C(=O)CNc2cc(C(F)(F)F)cc(C(F)(F)F)c2)CCN1
72

---

# Tested on: Rat SNL tactile allodynia
# measurementProtocol: L5/L6 spinal nerve ligation (SNL) Chung pain model, tactile allodynia (von Frey)
# Format: in vivo
# settings: 2 hours
Rat SNL Tactile Allodynia (% Antiallodynia) below 10% gives rule not met; Rat SNL Tactile Allodynia (% Antiallodynia) at or above it gives rule met.

These solved cases illustrate the format of a correct answer.
O=C1CN(C(=O)CNc2cc(F)cc(C(F)(F)F)c2)CCN1
rule not met
CC1(C)C(=O)NCCN1C(=O)CNc1cc(C(F)(F)F)cc(C(F)(F)F)c1
rule met
O=C1CN(C(=O)CNc2cc(C(F)(F)F)cc(C(F)(F)F)c2)CCN1
rule met
O=C(CC1CCNCC1)Nc1cc(C(F)(F)F)cc(C(F)(F)F)c1
rule met
CC1(C)CN(CC(=O)Nc2cc(C(F)(F)F)cc(C(F)(F)F)c2)C(=O)CN1
rule not met

Now look at this one.
Is Rat SNL Tactile Allodynia (% Antiallodynia) for O=C(CN1CCNCC1=O)Nc1cc(C(F)(F)F)cc(C(F)(F)F)c1 at or above 10%?
rule met

---

# Tested on: Lamina I/II spinal cord neurons
# measurementProtocol: Lamina assay: current-clamp recordings on lamina I/II spinal cord neurons
# Type: cell-based, rat
# settings: Rattus norvegicus, Neuron; Lamina I and II
endpointLabel: pEC50
Just so you know, pEC50 here is -log10 of the concentration in molar units; reply with that number alone.

Dear colleague, I am looking for the recorded pEC50 of the following compound: O=C(CN1CCNCC1=O)Nc1cc(C(F)(F)F)cc(C(F)(F)F)c1
6.32

---

# Test system: Rat SNL tactile allodynia
# measurementProtocol: L5/L6 spinal nerve ligation (SNL) Chung pain model, tactile allodynia (von Frey)
# Format: in vivo
# settings: 1 hour
Overview of reported Rat SNL Tactile Allodynia (% Antiallodynia) across a group of compounds:
Form entry: value (%) — number only.

O=C1CNCCN1C(=O)CNc1cc(F)cc(F)c1
1

Dear colleague, I am looking for the recorded Rat SNL Tactile Allodynia (% Antiallodynia) of the following compound: O=C(CN1CCNCC1=O)Nc1cc(C(F)(F)F)cc(C(F)(F)F)c1
52

Dear colleague, I am looking for the recorded Rat SNL Tactile Allodynia (% Antiallodynia) of the following compound: O=C(CC1CCNCC1)Nc1cc(C(F)(F)F)cc(C(F)(F)F)c1
47

Dear colleague, I am looking for the recorded Rat SNL Tactile Allodynia (% Antiallodynia) of the following compound: O=C1CN(C(=O)CNc2cc(C(F)(F)F)cc(C(F)(F)F)c2)CCN1
10

Dear colleague, I am looking for the recorded Rat SNL Tactile Allodynia (% Antiallodynia) of the following compound: CC1(C)CN(CC(=O)Nc2cc(C(F)(F)F)cc(C(F)(F)F)c2)C(=O)CN1
16

---

# systemTested: human Nav1.5 channel (Homo sapiens)
# Sequence (Q14524 whole entry): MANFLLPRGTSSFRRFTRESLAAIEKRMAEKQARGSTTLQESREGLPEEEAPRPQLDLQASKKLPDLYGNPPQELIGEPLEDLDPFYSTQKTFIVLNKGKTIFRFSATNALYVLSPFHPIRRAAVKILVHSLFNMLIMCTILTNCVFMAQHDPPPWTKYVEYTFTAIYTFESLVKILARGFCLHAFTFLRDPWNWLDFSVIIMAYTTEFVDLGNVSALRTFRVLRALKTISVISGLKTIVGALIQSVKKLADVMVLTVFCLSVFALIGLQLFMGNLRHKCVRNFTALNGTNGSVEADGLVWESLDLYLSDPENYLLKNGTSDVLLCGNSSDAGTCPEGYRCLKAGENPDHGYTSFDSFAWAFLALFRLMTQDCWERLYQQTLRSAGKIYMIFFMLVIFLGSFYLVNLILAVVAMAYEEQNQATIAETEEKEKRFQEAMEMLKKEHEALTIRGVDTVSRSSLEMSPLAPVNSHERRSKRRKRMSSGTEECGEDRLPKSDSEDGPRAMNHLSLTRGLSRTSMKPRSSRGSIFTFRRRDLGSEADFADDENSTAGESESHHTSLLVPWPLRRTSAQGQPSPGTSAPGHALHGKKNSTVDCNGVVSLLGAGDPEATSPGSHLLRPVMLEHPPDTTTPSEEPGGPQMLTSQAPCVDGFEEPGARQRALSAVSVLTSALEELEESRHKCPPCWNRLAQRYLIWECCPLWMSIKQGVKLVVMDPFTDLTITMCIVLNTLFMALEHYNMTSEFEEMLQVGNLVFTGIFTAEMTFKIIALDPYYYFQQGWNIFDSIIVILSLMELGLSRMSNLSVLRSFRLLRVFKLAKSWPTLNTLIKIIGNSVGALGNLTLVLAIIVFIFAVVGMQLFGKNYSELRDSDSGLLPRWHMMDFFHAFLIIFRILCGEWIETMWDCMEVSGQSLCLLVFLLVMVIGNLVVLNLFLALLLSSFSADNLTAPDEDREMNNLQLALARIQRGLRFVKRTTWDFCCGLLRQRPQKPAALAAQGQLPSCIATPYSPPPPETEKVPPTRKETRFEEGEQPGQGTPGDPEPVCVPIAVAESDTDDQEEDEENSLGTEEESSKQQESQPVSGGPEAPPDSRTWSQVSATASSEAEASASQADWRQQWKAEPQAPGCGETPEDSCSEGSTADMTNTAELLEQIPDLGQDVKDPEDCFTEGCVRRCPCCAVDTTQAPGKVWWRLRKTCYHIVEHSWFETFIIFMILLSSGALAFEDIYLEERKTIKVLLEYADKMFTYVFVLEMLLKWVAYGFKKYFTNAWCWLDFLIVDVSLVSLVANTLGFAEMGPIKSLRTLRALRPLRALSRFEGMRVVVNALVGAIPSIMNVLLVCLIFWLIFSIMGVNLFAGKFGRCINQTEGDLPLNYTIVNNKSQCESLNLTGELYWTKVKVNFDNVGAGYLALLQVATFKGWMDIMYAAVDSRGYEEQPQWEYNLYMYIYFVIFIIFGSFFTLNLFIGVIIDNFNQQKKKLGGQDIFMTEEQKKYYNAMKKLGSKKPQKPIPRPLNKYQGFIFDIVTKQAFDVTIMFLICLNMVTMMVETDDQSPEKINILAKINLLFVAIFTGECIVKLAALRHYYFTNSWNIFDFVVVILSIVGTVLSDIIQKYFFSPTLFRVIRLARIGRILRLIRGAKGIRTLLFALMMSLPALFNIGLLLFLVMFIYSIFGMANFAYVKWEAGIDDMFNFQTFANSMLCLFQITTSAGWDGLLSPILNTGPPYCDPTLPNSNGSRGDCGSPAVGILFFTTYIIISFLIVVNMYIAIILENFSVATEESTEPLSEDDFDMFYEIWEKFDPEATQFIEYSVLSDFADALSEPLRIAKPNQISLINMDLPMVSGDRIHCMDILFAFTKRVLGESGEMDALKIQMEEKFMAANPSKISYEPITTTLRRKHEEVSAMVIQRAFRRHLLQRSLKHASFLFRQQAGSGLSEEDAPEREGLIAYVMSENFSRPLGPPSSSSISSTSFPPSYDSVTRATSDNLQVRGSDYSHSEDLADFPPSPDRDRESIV
# measurementProtocol: NaV1.5 sodium channel screening assay, PatchXpress automated electrophysiology, cardiac action potential waveform 1 Hz
# settings: cardiac action potential waveform at 1 Hz; HEK cells; read-out: HNAv 1.5 Cardiac AP 1 Hz IC50
endpointLabel: IC50
A complete answer gives the number followed by the unit.

O=C(CN1CCNCC1=O)Nc1cc(C(F)(F)F)cc(C(F)(F)F)c1
100 µM
O=C1CN(CC(=O)Nc2cc(C(F)(F)F)cc(C(F)(F)F)c2)CCN1
80 µM

Dear colleague, I am looking for the recorded IC50 of the following compound: O=C(CN1CCNCC1)Nc1cc(C(F)(F)F)cc(C(F)(F)F)c1
40 µM
